system: S. pneumoniae 1629; assay: MIC against S. pneumoniae 1629, alone and with subinhibitory concentrations of a second agent; format: cell-based, Streptococcus pneumoniae; details: S. pneumoniae
QUANTITY: decrease of MIC by subinhibitory concentrations of Compound (1b)

SMILES_RECORD	VALUE_OBSERVED
C/C(=C\C(=O)OCCCCCCCCC(=O)O)C[C@@H]1OC[C@H](C[C@@H]2O[C@H]2[C@@H](C)[C@H](C)O)[C@@H](O)[C@H]1O	no effect
CC[C@H]1OC(=O)[C@H](C)[C@@H](O[C@H]2C[C@@](C)(OC)[C@@H](O)[C@H](C)O2)[C@H](C)[C@@H](O[C@@H]2O[C@H](C)C[C@H](N(C)C)[C@H]2O)[C@](C)(O)C[C@@H](C)CN(C)[C@H](C)[C@@H](O)[C@]1(C)O	2-8 fold
CC[C@H]1OC(=O)[C@H](C)[C@@H](O[C@H]2C[C@@](C)(OC)[C@@H](O)[C@H](C)O2)[C@H](C)[C@@H](O[C@@H]2O[C@H](C)C[C@H](N(C)C)[C@H]2O)[C@](C)(O)C[C@@H](C)C(=O)[C@H](C)[C@@H](O)[C@]1(C)O	4-16 fold
O=C(O)c1cn(C2CC2)c2cc(N3CCNCC3)c(F)cc2c1=O	no effect
